# System: 171881-019-R-J1-PDC complex spheroid viability
# method.summary: Anticancer human tumor 171881-019-R-J1-PDC patient-derived invasive breast carcinoma cell line growth inhibition
# details: second compound 3.16 µM; first compound 1 µM; active compounds read low
observable: viability, T/C (%)
Report the value in % with no unit label.

Below, each entry is followed by its recorded viability, T/C result.
* CC1(C)CCC(CN2CCN(c3ccc(C(=O)NS(=O)(=O)c4ccc(NCC5CCOCC5)c([N+](=O)[O-])c4)c(Oc4cnc5[nH]ccc5c4)c3)CC2)=C(c2ccc(Cl)cc2)C1 + NC1CC1c1ccc(-c2cccc(O)c2)cc1 | 63.2
* O=C(c1cc(Cc2n[nH]c(=O)c3ccccc23)ccc1F)N1CCN(C(=O)C2CC2)CC1 + NC1CCC(NC2CC2c2ccccc2)CC1 | 79.3
* CC1COCCN1c1cc(C2(S(C)(=N)=O)CC2)nc(-c2ccnc3[nH]ccc23)n1 (centres undefined) + NC1CCC(NC2CC2c2ccccc2)CC1 | 78.7

Turning to the following molecule.
Endpoint output: viability, T/C of Nc1ncn(C2CC(O)C(CO)O2)c(=O)n1 (centres undefined) + NC1CCC(NC2CC2c2ccccc2)CC1 . Value?
97.7

====

# System: 171881-019-R-J1-PDC complex spheroid viability
# method.summary: Anticancer human tumor 171881-019-R-J1-PDC cell line growth inhibition;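 note: spheroids exposed to agents for 7 days after 3 days growth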
# details: second compound 1 µM; first compound 1 µM; active compounds read low
observable: viability, T/C

Below, each entry is followed by its recorded viability, T/C result.
* O=C(c1cc(Cc2n[nH]c(=O)c3ccccc23)ccc1F)N1CCN(C(=O)C2CC2)CC1 + NC1CCC(NC2CC2c2ccccc2)CC1 | 79.9%
* CC1COCCN1c1cc(C2(S(C)(=N)=O)CC2)nc(-c2ccnc3[nH]ccc23)n1 (centres undefined) + NC1CCC(NC2CC2c2ccccc2)CC1 | 76.2%
* COc1cc(Nc2ncc3c(n2)-c2ccc(Cl)cc2C(c2c(F)cccc2OC)=NC3)ccc1C(=O)O + NC1CC1c1ccc(-c2cccc(O)c2)cc1 | 31.9%

Query for 171881-019-R-J1-PDC complex spheroid viability: what viability, T/C does the record show for CC1COCCN1c1cc(C2(S(C)(=N)=O)CC2)nc(-c2ccnc3[nH]ccc23)n1 (centres undefined) + NC1CC1c1ccc(-c2cccc(O)c2)cc1 ?
63.5%

====

# System: 171881-019-R-J1-PDC complex spheroid viability
# method.summary: Anticancer human tumor 171881-019-R-J1-PDC cell line growth inhibition; active = viability on the fitted dose curve at most 10% of control; inactive = the rest;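 note: spheroids exposed to agents for 7 days after 3 days growth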
# details: second compound 0.1 µM; first compound 0.316 µM
Give your call using only these classes: active, inactive

Recorded results for 3 compounds are shown here.
* CC1COCCN1c1cc(C2(S(C)(=N)=O)CC2)nc(-c2ccnc3[nH]ccc23)n1 (centres undefined) + NC1CCC(NC2CC2c2ccccc2)CC1 | inactive
* CC1COCCN1c1cc(-c2ccnn2C)c2ccnc(-c3ccn[nH]3)c2n1 (centres undefined) + NC1CC1c1ccc(-c2cccc(O)c2)cc1 | active
* COc1cc(Nc2ncc3c(n2)-c2ccc(Cl)cc2C(c2c(F)cccc2OC)=NC3)ccc1C(=O)O + NC1CCC(NC2CC2c2ccccc2)CC1 | inactive

Consider now this further compound.
// return assay outcome for O=C(c1cc(Cc2n[nH]c(=O)c3ccccc23)ccc1F)N1CCN(C(=O)C2CC2)CC1 + NC1CC1c1ccc(-c2cccc(O)c2)cc1
inactive

====

Listing of entries alongside the reported viability, T/C.
# Test system: 171881-019-R-J1-PDC complex spheroid viability
# method.summary: Anticancer human tumor 171881-019-R-J1-PDC cell line growth inhibition;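 note: spheroids exposed to agents for 7 days after 3 days growth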
# details: second compound 0.316 µM; first compound 0.316 µM; active compounds read low
Report the value in % with no unit label.

Below, each entry is followed by its recorded viability, T/C result.
* CC1COCCN1c1cc(-c2ccnn2C)c2ccnc(-c3ccn[nH]3)c2n1 (configuration not stated) + NC1CCC(NC2CC2c2ccccc2)CC1 | 6.3
* O=C(c1cc(Cc2n[nH]c(=O)c3ccccc23)ccc1F)N1CCN(C(=O)C2CC2)CC1 + NC1CCC(NC2CC2c2ccccc2)CC1 | 87.7
* CC1(C)CCC(CN2CCN(c3ccc(C(=O)NS(=O)(=O)c4ccc(NCC5CCOCC5)c([N+](=O)[O-])c4)c(Oc4cnc5[nH]ccc5c4)c3)CC2)=C(c2ccc(Cl)cc2)C1 + NC1CC1c1ccc(-c2cccc(O)c2)cc1 | 92.3
* Nc1ncn(C2CC(O)C(CO)O2)c(=O)n1 (configuration not stated) + NC1CC1c1ccc(-c2cccc(O)c2)cc1 | 90.8

Endpoint output: viability, T/C of O=C(C=Cn1cnc(-c2cc(C(F)(F)F)cc(C(F)(F)F)c2)n1)NNc1cnccn1 + NC1CCC(NC2CC2c2ccccc2)CC1 . Value?
6.21

Endpoint output: viability, T/C of CC(C)c1c(-c2ccccc2)nc2c(C#N)c[nH]n2c1=O + NC1CCC(NC2CC2c2ccccc2)CC1 . Value?
82.6

Endpoint output: viability, T/C of COc1cc(Nc2ncc3c(n2)-c2ccc(Cl)cc2C(c2c(F)cccc2OC)=NC3)ccc1C(=O)O + NC1CC1c1ccc(-c2cccc(O)c2)cc1 . Value?
61.9

====

# Tested on: 171881-019-R-J1-PDC complex spheroid viability
# method.summary: Anticancer human tumor 171881-019-R-J1-PDC cell line growth inhibition;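 note: spheroids exposed to agents for 7 days after 3 days growth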
# details: second compound 10 µM; first compound 0.01 µM; active compounds read low
Listing of entries alongside the reported viability, T/C.
Report the value in % with no unit label.

Below, each entry is followed by its recorded viability, T/C result.
- CC[C@@]1(O)C(=O)OCc2c1cc1n(c2=O)Cc2cc3c(CN(C)C)c(O)ccc3nc2-1 + NC1CC1c1ccc(-c2cccc(O)c2)cc1: 57.3
- COc1cc(Nc2ncc3c(n2)-c2ccc(Cl)cc2C(c2c(F)cccc2OC)=NC3)ccc1C(=O)O + NC1CC1c1ccc(-c2cccc(O)c2)cc1: 61
- Nc1ncn(C2CC(O)C(CO)O2)c(=O)n1 (centres undefined) + NC1CC1c1ccc(-c2cccc(O)c2)cc1: 80.6

Turning to the following compound.
Endpoint output: viability, T/C of O=C(C=Cn1cnc(-c2cc(C(F)(F)F)cc(C(F)(F)F)c2)n1)NNc1cnccn1 + NC1CC1c1ccc(-c2cccc(O)c2)cc1 . Value?
16.5

====

Listing of entries alongside the reported viability, T/C.
# System: 171881-019-R-J1-PDC complex spheroid viability
# method.summary: Anticancer human tumor 171881-019-R-J1-PDC cell line growth inhibition;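 note: spheroids exposed to agents for 7 days after 3 days growth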
# details: second compound 0.316 µM; first compound 0.0949 µM; active compounds read low
# From the text: Multicellular complex tumor spheroid response to LSD1 Inhibitor Iadademstat in combination with a variety of drugs and investigational agents in selected tumor cell lines The current study was undertaken to assess response to LSD1 inhibitors in combination with standard-of-care drugs and investigational agents in solid tumor complex spheroid models as well as in the K-562 leukemia. […] Compounds. […] If the clinical Cmax for an agent had not been determined, the highest concentration tested was 10 microM. […]
Report the value in % with no unit label.

• Nc1ccccc1NC(=O)c1ccc(CNC(=O)OCc2cccnc2)cc1 + NC1CCC(NC2CC2c2ccccc2)CC1 = 119
• Nc1ncn(C2CC(O)C(CO)S2)c(=O)n1 (centres undefined) + NC1CCC(NC2CC2c2ccccc2)CC1 = 66.4
• COc1cc(C2c3cc4c(cc3C(OC3OC5COC(C)OC5C(O)C3O)C3COC(=O)C23)OCO4)cc(OC)c1O (centres undefined) + NC1CCC(NC2CC2c2ccccc2)CC1 = 94

Turning to the following compound.
Endpoint output: viability, T/C of O=C(C=Cc1cccc(S(=O)(=O)Nc2ccccc2)c1)NO + NC1CC1c1ccc(-c2cccc(O)c2)cc1 . Value?
100

====

# System: 171881-019-R-J1-PDC complex spheroid viability
# method.summary: Anticancer human tumor 171881-019-R-J1-PDC cell line growth inhibition;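 note: spheroids exposed to agents for 7 days after 3 days growth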
# details: second compound 3.16 µM; first compound 0.949 µM; active compounds read low
observable: viability, T/C (%)
Report the value in % with no unit label.

- Nc1ccccc1NC(=O)c1ccc(CNC(=O)OCc2cccnc2)cc1 + NC1CCC(NC2CC2c2ccccc2)CC1: 2.3
- COc1cc(C2c3cc4c(cc3C(OC3OC5COC(C)OC5C(O)C3O)C3COC(=O)C23)OCO4)cc(OC)c1O (centres undefined) + NC1CCC(NC2CC2c2ccccc2)CC1: 40.8
- O=C(C=Cc1cccc(S(=O)(=O)Nc2ccccc2)c1)NO + NC1CC1c1ccc(-c2cccc(O)c2)cc1: 1.09

Endpoint output: viability, T/C of NS(=O)(=O)OCC1CC(n2ccc3c(NC4CCc5ccccc54)ncnc32)CC1O (centres undefined) + NC1CC1c1ccc(-c2cccc(O)c2)cc1 . Value?
26.9

====

# System: 171881-019-R-J1-PDC complex spheroid viability
# method.summary: Anticancer human tumor 171881-019-R-J1-PDC cell line growth inhibition;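 note: spheroids exposed to agents for 7 days after 3 days growth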
# details: second compound 10 µM; first compound 0.003 µM; active compounds read low
Classify: 1 when viability, T/C is strictly less than 70%; 0 when viability, T/C is not.

Recorded results for 4 molecules are shown here.
• CCc1c2c(nc3ccc(O)cc13)-c1cc3c(c(=O)n1C2)COC(=O)[C@]3(O)CC + NC1CC1c1ccc(-c2cccc(O)c2)cc1 = 1
• Nc1ccn(C2OC(CO)C(O)C2(F)F)c(=O)n1 (stereo unspecified) + NC1CCC(NC2CC2c2ccccc2)CC1 = 1
• Nc1ccn(C2OC(CO)C(O)C2(F)F)c(=O)n1 (stereo unspecified) + NC1CC1c1ccc(-c2cccc(O)c2)cc1 = 1
• Nc1ncn(C2CC(O)C(CO)S2)c(=O)n1 (stereo unspecified) + NC1CCC(NC2CC2c2ccccc2)CC1 = 0

Please let me know if CCc1c2c(nc3ccc(O)cc13)-c1cc3c(c(=O)n1C2)COC(=O)[C@]3(O)CC + NC1CCC(NC2CC2c2ccccc2)CC1 shows viability, T/C below 70%.
1
